Values compiled from ChEMBL document CHEMBL3352573.

Reported Retention_time values are given for each entry in this list.
experiment: Retention time of the compound by reverse-phase HPLC method; format: physicochemical
Express your answer in min, writing the number without its unit.

The following compounds have reported results that may help.
CCCC[C@H](NC(=O)COCC(=O)NCCCOCCOCCOCCCNC(=O)CNC(=O)[C@@H]1CCCN1C(=O)CNC(=O)[C@@H]1CCCN1C(=O)CNC(=O)[C@@H]1CCCN1C(=O)COCC(=O)NCCCOCCOCCOCCCNC(C)=O)C(=O)N[C@H]1CC(=O)NCCCC[C@@H](C(N)=O)NC(=O)[C@H](Cc2c[nH]c3ccccc23)NC(=O)[C@H](CCCNC(=N)N)NC(=O)[C@@H](Cc2ccc3ccccc3c2)NC(=O)[C@H](Cc2cnc[nH]2)NC1=O 12.3
CCCC[C@H](NC(C)=O)C(=O)N[C@H]1CC(=O)NCCCC[C@@H](C(=O)NCCCOCCOCCOCCCNC(=O)COCC(=O)N[C@@H](CCCC)C(=O)N[C@H]2CC(=O)NCCCC[C@@H](C(N)=O)NC(=O)[C@H](Cc3c[nH]c4ccccc34)NC(=O)[C@H](CCCNC(=N)N)NC(=O)[C@@H](Cc3ccc4ccccc4c3)NC(=O)[C@H](Cc3cnc[nH]3)NC2=O)NC(=O)[C@H](Cc2c[nH]c3ccccc23)NC(=O)[C@H](CCCNC(=N)N)NC(=O)[C@@H](Cc2ccc3ccccc3c2)NC(=O)[C@H](Cc2cnc[nH]2)NC1=O 14

Now take the following compound into account.
// Retention_time value for `CCCC[C@H](NC(C)=O)C(=O)N[C@H]1CC(=O)NCCCC[C@@H](C(=O)NCCCOCCOCCOCCCNC(=O)COCC(=O)NCCCOCCOCCOCCCNC(=O)COCC(=O)N[C@@H](CCCC)C(=O)N[C@H]2CC(=O)NCCCC[C@@H](C(N)=O)NC(=O)[C@H](Cc3c[nH]c4ccccc34)NC(=O)[C@H](CCCNC(=N)N)NC(=O)[C@@H](Cc3ccc4ccccc4c3)NC(=O)[C@H](Cc3cnc[nH]3)NC2=O)NC(=O)[C@H](Cc2c[nH]c3ccccc23)NC(=O)[C@H](CCCNC(=N)N)NC(=O)[C@@H](Cc2ccc3ccccc3c2)NC(=O)[C@H](Cc2cnc[nH]2)NC1=O` : 13.9

* * *

assay: Retention time of the compound by reverse-phase HPLC method; format: physicochemical
value_kind: Retention_time (min)
Reply numerically in min, unit not repeated.

compound `CCCC[C@H](NC(=O)COCC(=O)NCCCOCCOCCOCCCNC(C)=O)C(=O)N[C@H]1CC(=O)NCCCC[C@@H](C(N)=O)NC(=O)[C@H](Cc2c[nH]c3ccccc23)NC(=O)[C@H](CCCNC(=N)N)NC(=O)[C@@H](Cc2ccc3ccccc3c2)NC(=O)[C@H](Cc2cnc[nH]2)NC1=O` , Retention_time observed: 12.5

* * *

assay: Retention time of the compound by reverse-phase HPLC method; type: physicochemical
value_kind: Retention_time (min)
Reply with just the number (in min).

Past entries and their recorded results:
CCCC[C@H](NC(=O)COCC(=O)NCCCOCCOCCOCCCNC(=O)COCC(=O)NCCCOCCOCCOCCCNC(C)=O)C(=O)N[C@H]1CC(=O)NCCCC[C@@H](C(N)=O)NC(=O)[C@H](Cc2c[nH]c3ccccc23)NC(=O)[C@H](CCCNC(=N)N)NC(=O)[C@@H](Cc2ccc3ccccc3c2)NC(=O)[C@H](Cc2cnc[nH]2)NC1=O 12.5
CCCC[C@H](NC(=O)CNC(=O)[C@@H]1CCCN1C(=O)CNC(=O)[C@@H]1CCCN1C(=O)CNC(=O)[C@@H]1CCCN1C(=O)CNC(=O)[C@@H]1CCCN1C(=O)CNC(=O)[C@@H]1CCCN1C(=O)CNC(=O)[C@@H]1CCCN1C(=O)CNC(=O)[C@@H]1CCCN1C(=O)CNC(=O)[C@@H]1CCCN1C(=O)CNC(=O)[C@@H]1CCCN1C(C)=O)C(=O)N[C@H]1CC(=O)NCCCC[C@@H](C(N)=O)NC(=O)[C@H](Cc2c[nH]c3ccccc23)NC(=O)[C@H](CCCNC(=N)N)NC(=O)[C@@H](Cc2ccc3ccccc3c2)NC(=O)[C@H](Cc2cnc[nH]2)NC1=O 11.9

Now for a further compound.
Item: `CCCC[C@H](NC(=O)CNC(=O)[C@@H]1CCCN1C(=O)CNC(=O)[C@@H]1CCCN1C(=O)CNC(=O)[C@@H]1CCCN1C(=O)CNC(=O)[C@@H]1CCCN1C(=O)CNC(=O)[C@@H]1CCCN1C(=O)CNC(=O)[C@@H]1CCCN1C(C)=O)C(=O)N[C@H]1CC(=O)NCCCC[C@@H](C(N)=O)NC(=O)[C@H](Cc2c[nH]c3ccccc23)NC(=O)[C@H](CCCNC(=N)N)NC(=O)[C@@H](Cc2ccc3ccccc3c2)NC(=O)[C@H](Cc2cnc[nH]2)NC1=O` | Retention_time: 11.9
